Conditions: cynomolgus monkey, in vivo, iv, 1 mg/kg
Would you kindly list CLH for each of these molecules?

Given CCOc1cc(CC(=O)N[C@@H](CC(C)C)c2ccccc2N2CCCCC2)ccc1C(=O)O [REPAGLINIDE] , state its recorded CLH.
10.7 mL/min/kg

Could you tell me which CLH is on file for COCc1c(C(C)C)nc(C(C)C)c(/C=C/[C@@H](O)C[C@@H](O)CC(=O)O)c1-c1ccc(F)cc1 ?
19.7 mL/min/kg

Please report the recorded CLH for CCCc1nc2c(C)cc(-c3nc4ccccc4n3C)cc2n1Cc1ccc(-c2ccccc2C(=O)O)cc1 .
9.2 mL/min/kg

Any idea what CLH was measured for CN(C)C(=O)CCS[C@H](SCCC(=O)O)c1cccc(/C=C/c2ccc3ccc(Cl)cc3n2)c1 ?
10.1 mL/min/kg

I am curious: what CLH value has been reported for O=C(O)C[C@H](O)C[C@H](O)/C=C/c1c(C2CC2)nc2ccccc2c1-c1ccc(F)cc1 ?
17.8 mL/min/kg

Quick one: CLH of CC(C)(C)OC(=O)N[C@H]1CCCCC/C=C\[C@@H]2C[C@@]2(C(=O)NS(=O)(=O)C2CC2)NC(=O)[C@@H]2C[C@@H](OC(=O)N3Cc4cccc(F)c4C3)CN2C1=O ?
26.3 mL/min/kg

Can you share its CLH? I mean this molecule: O=C(O)Cc1ccccc1Nc1c(Cl)cccc1Cl
10.8 mL/min/kg

Please look up its CLH: COc1ccccc1Oc1c(NS(=O)(=O)c2ccc(C(C)(C)C)cc2)nc(-c2ncccn2)nc1OCCO
33.1 mL/min/kg

For the molecule CCCCc1nc(C)c(CC(=S)N(C)C)c(=O)n1Cc1ccc(-c2ccccc2-c2nnn[nH]2)cc1 , what CLH is on record?
23 mL/min/kg

So what's the measured CLH for this one? CCCCCN(CCCOC)C(=O)[C@@H](CCC(=O)O)NC(=O)c1ccc(Cl)c(Cl)c1 [DEXLOXIGLUMIDE]
1.4 mL/min/kg

CLH for COc1ccc(Cl)cc1C(=O)NCCc1ccc(S(=O)(=O)NC(=O)NC2CCCCC2)cc1 [GLYBURIDE] ?
5.8 mL/min/kg

# CLH lookup, item CCO[C@@H](Cc1ccc(OCCc2ccc(OS(C)(=O)=O)cc2)cc1)C(=O)O
0.135 mL/min/kg

# get_value(readout='CLH', item= O=C(c1ccccc1)c1ccc2n1CCC2C(=O)O (stereo not drawn) )
1.2 mL/min/kg

// lookup CLH for CC(C)(O)c1ccccc1CC[C@@H](SCC1(CC(=O)O)CC1)c1cccc(/C=C/c2ccc3ccc(Cl)cc3n2)c1
1.3 mL/min/kg

Please report the recorded CLH for COc1ccc2c(c1)C(=O)N(CCc1ccc(S(=O)(=O)NC(=O)NC3CCCCC3)cc1)C(=O)C2(C)C .
3.5 mL/min/kg

Which CLH is reported for this molecule? CC[C@H](C)C(=O)O[C@H]1C[C@H](O)C=C2C=C[C@H](C)[C@H](CC[C@@H](O)C[C@@H](O)CC(=O)O)[C@H]21
34.6 mL/min/kg

Which value of CLH has been reported for O=C(O)c1cccc(Cc2cc(Cl)ccc2OCc2ccc(Cl)cc2F)n1 in the records?
19.5 mL/min/kg

May I ask what CLH has been recorded for CC(C)c1nc(N(C)S(C)(=O)=O)nc(-c2ccc(F)cc2)c1/C=C/[C@@H](O)C[C@@H](O)CC(=O)O ?
27.9 mL/min/kg

Which CLH is reported for this molecule? CCCCC(=O)N(Cc1ccc(-c2ccccc2-c2nnn[nH]2)cc1)[C@H](C(=O)O)C(C)C
8.4 mL/min/kg

Find the recorded CLH belonging to Cc1nn(-c2cnc(OCC(C)C)c(Cl)c2)c2ccc(C(=O)NS(C)(=O)=O)cc12 and report it.
30.1 mL/min/kg

Which value of CLH has been reported for Nc1[nH]ncc1-c1cc(Cl)ccc1Oc1cc(F)c(S(=O)(=O)Nc2cscn2)cc1Cl in the records?
1.8 mL/min/kg

For the molecule shown here, CCCCC1=NC2(CCCC2)C(=O)N1Cc1ccc(-c2ccccc2-c2nnn[nH]2)cc1 , give the reported CLH.
12.1 mL/min/kg

# lookup: CLH of CC(C)(C)NC(=O)[C@H]1CC[C@H]2[C@@H]3CC=C4C=C(C(=O)O)CC[C@]4(C)[C@H]3CC[C@]12C [EPRISTERIDE]
1.5 mL/min/kg

====

Assay: in vitro
Conditions: human, cryopreserved hepatocytes
Outcome: Met for CLint scaled at 2 h, 1 µM of at least 2 L/h/kg; Not met for anything lower.

Please check the record O=C(O)C[C@H](O)C[C@H](O)/C=C/c1c(C2CC2)nc2ccccc2c1-c1ccc(F)cc1 and state if its CLint scaled at 2 h, 1 µM is at or above 2 L/h/kg.
Not met

Record Cc1nn(-c2cnc(OCC(C)C)c(Cl)c2)c2ccc(C(=O)NS(C)(=O)=O)cc12 ; criterion: CLint scaled at 2 h, 1 µM no lower than 2 L/h/kg. Met?
Met

For this compound, is measured CLint scaled at 2 h, 1 µM 2 L/h/kg or higher? CN(C)C(=O)CCS[C@H](SCCC(=O)O)c1cccc(/C=C/c2ccc3ccc(Cl)cc3n2)c1
Met

Has CCCc1nc2c(C)cc(-c3nc4ccccc4n3C)cc2n1Cc1ccc(-c2ccccc2C(=O)O)cc1 a recorded CLint scaled at 2 h, 1 µM greater than or equal to 2 L/h/kg?
Met

Is CLint scaled at 2 h, 1 µM at least 2 L/h/kg? Consider CCCCCN(CCCOC)C(=O)[C@@H](CCC(=O)O)NC(=O)c1ccc(Cl)c(Cl)c1 [DEXLOXIGLUMIDE]
Not met

API: above_or_equal(metric=CLint scaled at 2 h, 1 µM, cutoff=2 L/h/kg) for item COc1ccccc1[C@H](Cn1c(=O)n(C(C)(C)C(=O)O)c(=O)c2c(C)c(-c3ncco3)sc21)OC1CCOCC1
Not met

Does CLint scaled at 2 h, 1 µM meet or surpass 2 L/h/kg for COc1ccccc1Oc1c(NS(=O)(=O)c2ccc(C(C)(C)C)cc2)nc(-c2ncccn2)nc1OCCO ?
Not met

Is it the case that CCO[C@@H](Cc1ccc(OCCc2ccc(OS(C)(=O)=O)cc2)cc1)C(=O)O has CLint scaled at 2 h, 1 µM reaching or exceeding 2 L/h/kg?
Not met

Is CLint scaled at 2 h, 1 µM for CC[C@H](C)C(=O)O[C@H]1C[C@H](O)C=C2C=C[C@H](C)[C@H](CC[C@@H](O)C[C@@H](O)CC(=O)O)[C@H]21 at or above 2 L/h/kg?
Not met

I'd appreciate it if you could say whether Cc1ccc(NC(=O)C2(c3ccc4c(c3)OC(F)(F)O4)CC2)nc1-c1cccc(C(=O)O)c1 has CLint scaled at 2 h, 1 µM at least equal to 2 L/h/kg.
Not met

Determine whether this compound has CLint scaled at 2 h, 1 µM no lower than 2 L/h/kg: O=C(c1ccccc1)c1ccc2n1CCC2C(=O)O (stereo unspecified)
Not met

Does the compound COc1ccc(Cl)cc1C(=O)NCCc1ccc(S(=O)(=O)NC(=O)NC2CCCCC2)cc1 [GLYBURIDE] have recorded CLint scaled at 2 h, 1 µM that is 2 L/h/kg or more?
Met

Check if CLint scaled at 2 h, 1 µM >= 2 L/h/kg (inclusive). Item: Cc1cc(O[C@H](CCC(F)(F)F)c2ccc(C(=O)NCCC(=O)O)cc2)cc(C)c1-c1ccc(C(C)(C)C)cc1
Met

Determine whether measured CLint scaled at 2 h, 1 µM meets or exceeds 2 L/h/kg for CCCCC(=O)N(Cc1ccc(-c2ccccc2-c2nnn[nH]2)cc1)[C@H](C(=O)O)C(C)C
Not met

Check if CLint scaled at 2 h, 1 µM >= 2 L/h/kg (inclusive). Item: Cn1cc(C(=O)O)c2ccc(N3CCC(OCc4c(-c5c(Cl)cccc5Cl)noc4C4CC4)CC3)cc21
Met

Determine whether measured CLint scaled at 2 h, 1 µM meets or exceeds 2 L/h/kg for Cc1ccc(S(=O)(=O)NCCc2ccc(Oc3ccc(F)c(F)c3)cc2)cc1C(=O)O
Not met

====

Assay: in vitro
Conditions: cynomolgus monkey, plasma
Description: Fraction unbound in cynomolgus monkey plasma
value kind: fraction unbound

Requested field: fraction unbound. Item: Cc1ccc(NC(=O)C2(c3ccc4c(c3)OC(F)(F)O4)CC2)nc1-c1cccc(C(=O)O)c1 [LUMACAFTOR]
0.0045

Using the record for COc1ccccc1[C@H](Cn1c(=O)n(C(C)(C)C(=O)O)c(=O)c2c(C)c(-c3ncco3)sc21)OC1CCOCC1 [FIRSOCOSTAT] , report its fraction unbound.
0.0284

Given Cn1cc(C(=O)O)c2ccc(N3CCC(OCc4c(-c5c(Cl)cccc5Cl)noc4C4CC4)CC3)cc21 [TERN-101] , state its recorded fraction unbound.
0.0049

Tell me the measured fraction unbound of COc1ccc2c(c1)C(=O)N(CCc1ccc(S(=O)(=O)NC(=O)NC3CCCCC3)cc1)C(=O)C2(C)C [GLIQUIDONE] , please.
0.0015

Entry under review: COCc1c(C(C)C)nc(C(C)C)c(/C=C/[C@@H](O)C[C@@H](O)CC(=O)O)c1-c1ccc(F)cc1 [CERIVASTATIN] . Reported fraction unbound?
0.0153

Returns the measured fraction unbound for the input compound. Input: O=C(O)Cc1ccccc1Nc1c(Cl)cccc1Cl [DICLOFENAC]
0.0047

Which fraction unbound is reported for this compound? CCCCC1=NC2(CCCC2)C(=O)N1Cc1ccc(-c2ccccc2-c2nnn[nH]2)cc1 [IRBESARTAN]
0.0126
